- target or test system: TLR7 (Mus musculus, UniProt P58681)
- Construct: host or cells: RAW264.7 murine macrophages
- method: Inhibition of IMQ (TLR7 agonist)-induced TNF-α secretion in RAW264.7 cells, ELISA
- Assay type: cell-based, murine
pIC50: −log10 of the molar value.
endpoint: pIC50

INSERT INTO assay_data (compound, recorded_value) VALUES
  ('CC(C)n1cc(C(=O)c2ccccc2)c2cccnc21 [TAC5-050]', 4.62);

---

- target or test system: TLR7 (Mus musculus, UniProt P58681)
- Construct: host or cells: RAW264.7 murine macrophages
- Sequence (P58681 27-1050): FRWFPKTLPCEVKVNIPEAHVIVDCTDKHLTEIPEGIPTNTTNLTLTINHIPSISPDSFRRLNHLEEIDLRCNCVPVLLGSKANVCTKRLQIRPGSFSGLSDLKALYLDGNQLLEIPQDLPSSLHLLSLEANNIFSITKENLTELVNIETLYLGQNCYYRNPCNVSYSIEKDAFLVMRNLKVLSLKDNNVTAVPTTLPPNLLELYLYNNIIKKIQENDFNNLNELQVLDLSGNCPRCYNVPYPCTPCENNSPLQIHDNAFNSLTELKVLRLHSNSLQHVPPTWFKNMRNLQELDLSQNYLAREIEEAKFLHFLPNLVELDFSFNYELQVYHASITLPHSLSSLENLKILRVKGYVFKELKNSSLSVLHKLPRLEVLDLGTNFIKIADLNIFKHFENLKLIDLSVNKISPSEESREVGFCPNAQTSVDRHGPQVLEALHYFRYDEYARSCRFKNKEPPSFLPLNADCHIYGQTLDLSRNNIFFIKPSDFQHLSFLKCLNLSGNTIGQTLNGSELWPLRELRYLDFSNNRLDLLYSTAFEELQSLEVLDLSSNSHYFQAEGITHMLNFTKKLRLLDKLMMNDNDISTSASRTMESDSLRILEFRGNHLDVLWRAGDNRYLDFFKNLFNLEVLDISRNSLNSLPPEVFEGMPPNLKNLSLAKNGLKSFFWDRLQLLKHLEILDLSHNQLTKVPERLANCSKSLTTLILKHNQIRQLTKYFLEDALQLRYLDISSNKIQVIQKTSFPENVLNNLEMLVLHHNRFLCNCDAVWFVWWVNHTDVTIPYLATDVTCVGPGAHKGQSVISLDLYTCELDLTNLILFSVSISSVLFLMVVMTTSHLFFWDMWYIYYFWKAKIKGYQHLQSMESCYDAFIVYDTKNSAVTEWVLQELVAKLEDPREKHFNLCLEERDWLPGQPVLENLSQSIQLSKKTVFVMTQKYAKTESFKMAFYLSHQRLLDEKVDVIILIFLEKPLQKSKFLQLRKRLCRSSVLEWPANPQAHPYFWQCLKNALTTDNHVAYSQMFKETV
- method: Inhibition of IMQ (TLR7 agonist)-induced TNF-α secretion in RAW264.7 cells, ELISA
- Assay type: cell-based, murine
- condition context: RAW264.7 cells, compound 1 hour, then IMQ (1 μg/ml) 4 hours, mTNF-α ELISA (FIG. 9); read-out: IC50 for TLR7
endpoint: IC50

INSERT INTO measurements (given_smiles, endpoint, recorded_value) VALUES
  ('O=C(c1ccccc1)c1cn(S(=O)(=O)c2ccccc2)c2ncccc12', 'IC50', '10.8 µM');

---

- target or test system: TLR9 (Mus musculus, UniProt Q9EQU3)
- Construct: host or cells: RAW264.7 murine macrophages
- Sequence (Q9EQU3 26-1032): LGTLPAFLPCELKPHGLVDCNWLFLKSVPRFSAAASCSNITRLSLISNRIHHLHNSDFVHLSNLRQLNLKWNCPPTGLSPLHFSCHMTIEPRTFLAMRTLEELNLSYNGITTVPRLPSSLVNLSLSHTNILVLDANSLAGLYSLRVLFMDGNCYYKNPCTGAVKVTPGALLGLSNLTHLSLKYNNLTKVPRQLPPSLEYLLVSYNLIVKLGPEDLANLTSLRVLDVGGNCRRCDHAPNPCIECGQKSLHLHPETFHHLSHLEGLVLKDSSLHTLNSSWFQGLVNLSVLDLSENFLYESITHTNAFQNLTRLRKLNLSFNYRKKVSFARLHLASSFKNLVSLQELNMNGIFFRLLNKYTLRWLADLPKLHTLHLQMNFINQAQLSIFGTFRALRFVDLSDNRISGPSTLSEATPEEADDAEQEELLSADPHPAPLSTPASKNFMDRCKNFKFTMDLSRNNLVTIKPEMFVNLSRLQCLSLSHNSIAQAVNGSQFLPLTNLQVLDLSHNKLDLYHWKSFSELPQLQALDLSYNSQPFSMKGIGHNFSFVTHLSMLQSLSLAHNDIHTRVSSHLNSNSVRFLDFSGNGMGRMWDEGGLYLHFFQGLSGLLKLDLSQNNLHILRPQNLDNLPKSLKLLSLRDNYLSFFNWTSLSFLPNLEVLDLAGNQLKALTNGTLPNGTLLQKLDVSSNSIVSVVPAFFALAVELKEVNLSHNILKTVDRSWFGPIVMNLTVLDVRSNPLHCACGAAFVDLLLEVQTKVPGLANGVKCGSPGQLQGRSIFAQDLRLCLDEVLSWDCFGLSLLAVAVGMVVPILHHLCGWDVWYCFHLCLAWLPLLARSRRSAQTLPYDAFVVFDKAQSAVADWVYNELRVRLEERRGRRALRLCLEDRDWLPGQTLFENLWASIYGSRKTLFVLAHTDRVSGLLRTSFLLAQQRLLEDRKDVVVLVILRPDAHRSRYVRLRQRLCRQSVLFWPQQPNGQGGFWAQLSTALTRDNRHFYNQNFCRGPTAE
- method: Inhibition of ODN 2395 (TLR9 agonist)-induced TNF-α secretion in RAW264.7 cells, ELISA
- Assay type: cell-based, murine
endpoint: IC50 (µM)

INSERT INTO measurements (given_smiles, endpoint, recorded_value) VALUES
  ('CC(C)n1cc(C(=O)c2ccccc2)c2cccnc21', 'IC50', 53.1);

---

- Test system: RAW264.7 cells
- method: MTT cytotoxicity assay in RAW264.7 cells
- Assay type: cell-based, murine
- condition context: RAW264.7 cells, 1, 10 and 50 μM, 24 hours (FIG. 7A)
endpoint: cytotoxicity (MTT assay)

INSERT INTO results (molecule, recorded_value) VALUES
  ('O=C(c1ccccc1)c1c[nH]c2ncc(Cl)cc12 [TAC5-055]', 'cytotoxic'),
  ('O=C(c1ccccc1)c1cn(S(=O)(=O)c2ccccc2)c2ncccc12 [TAC5-051]', 'non-cytotoxic'),
  ('O=C(c1ccc(Cl)c(F)c1)c1c[nH]c2ncccc12 [TAC5-054]', 'cytotoxic'),
  ('O=C(c1cccc([N+](=O)[O-])c1)c1c[nH]c2ncccc12 [TAC5-052]', 'cytotoxic'),
  ('O=C(c1ccc(Cl)c(Cl)c1)c1c[nH]c2ncccc12 [TAC5-053]', 'cytotoxic'),
  ('CC(C)n1cc(C(=O)c2ccccc2)c2cccnc21 [TAC5-050]', 'non-cytotoxic');
